biological target: human kisspeptin receptor (Homo sapiens (Human), UniProt Q969F8); assay: Human KISS1R binding assay (membrane competition binding); details: 90 min at room temperature; competition with 0.2 nM [125I]-metastin (45-54); Flp-In T-Rex 293 kisspeptin membranes; metal complexes nonradioactive Ga, In, Lu; read-out: hKiSSR Binding Ki (90 min)
Sequence (Q969F8 whole entry): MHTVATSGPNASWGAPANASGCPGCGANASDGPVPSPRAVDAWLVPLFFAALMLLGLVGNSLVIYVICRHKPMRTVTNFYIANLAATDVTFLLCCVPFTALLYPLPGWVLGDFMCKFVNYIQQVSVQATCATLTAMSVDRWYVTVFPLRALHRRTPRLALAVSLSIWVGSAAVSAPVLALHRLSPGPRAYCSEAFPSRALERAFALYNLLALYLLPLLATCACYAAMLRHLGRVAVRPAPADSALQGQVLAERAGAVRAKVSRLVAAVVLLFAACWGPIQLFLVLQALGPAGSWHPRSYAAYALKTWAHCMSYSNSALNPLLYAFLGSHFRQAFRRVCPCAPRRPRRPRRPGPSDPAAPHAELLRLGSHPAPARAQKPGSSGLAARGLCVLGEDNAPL
Numbered stars: 1 amine (or outer) side, 2 acyl side, 3 side chain; on linkers, the order of the positions; unused ones are H or OH. Square brackets hold non-standard residues; d marks the D form. Peptide text beside a SMILES is read from it. * marks the point of attachment. DOTA = O=C(O)CN1CCN(CC(=O)O)CCN(CC(=O)*)CCN(CC(=O)O)CC1; Gly(N-(3-F-4-Me-benzyl)) = Cc1ccc(CNCC(=O)*)cc1F; X1 = O=C(CN1CCC(N[*:1])CC1)[*:2]; Api = NC1(C(=O)O)CCNCC1; Ahx = NCCCCCC(=O)O; azaGly = NNC(=O)O
I'd appreciate it if you could supply Ki values for the items below.

Cc1ccc(CNCC(=O)N2CCC(NC(=O)[C@H](CC(C)C)NC(=O)NNC(=O)[C@H](Cc3ccccc3)NC(=O)CN3CCC(NC(=O)CN4CCN(CC(=O)O)CCN(CC(=O)O)CCN(CC(=O)O)CC4)CC3)(C(=O)N[C@@H](Cc3ccc(O)cc3)C(N)=O)CC2)cc1F [Compound 247] ({DOTA}-[X1]F[azaGly]L[Api](Gly(N-(3-F-4-Me-benzyl)))Y-NH2) | < 0.01 µM

Continue with the next compound.
Task: Give the reported Ki for this compound. Cc1ccc(CNCC(=O)N2CCC(NC(=O)[C@H](CC(C)C)NC(=O)NNC(=O)[C@H](Cc3ccccc3)NC(=O)CCCCCNC(=O)[C@H](Cc3ccc(O)cc3)NC(=O)CNC(=O)CN3CCN(CC(=O)O)CCN(CC(=O)O)CCN(CC(=O)O)CC3)(C(=O)N[C@@H](Cc3c[nH]c4ccccc34)C(N)=O)CC2)cc1F [Compound 305] ({DOTA}-GY[Ahx]F[azaGly]L[Api](Gly(N-(3-F-4-Me-benzyl)))W-NH2)
Result: < 0.01 µM

* * *

target: human kisspeptin receptor (Homo sapiens (Human)); experiment: Human KISS1R binding assay (membrane competition binding); conditions: 90 min at room temperature; competition with 0.2 nM [125I]-metastin (45-54); Flp-In T-Rex 293 kisspeptin membranes; metal complexes nonradioactive Ga, In, Lu; read-out: hKiSSR Binding Ki (90 min)
Square brackets hold non-standard residues; d marks the D form. Peptide text beside a SMILES is read from it. * marks the point of attachment. DOTA = O=C(O)CN1CCN(CC(=O)O)CCN(CC(=O)*)CCN(CC(=O)O)CC1; Gly(N-(3-F-4-Me-benzyl)) = Cc1ccc(CNCC(=O)*)cc1F; Api(1-amidino) = N=C(N)N1CCC(N)(C(=O)O)CC1; Hydrocinnamoyl(4-I) = O=C(CCc1ccc(I)cc1)*; Api = NC1(C(=O)O)CCNCC1; PEG2 = NCCOCCOCCC(=O)O; Ahx = NCCCCCC(=O)O; azaGly = NNC(=O)O
reported_property: Ki

Cc1ccc(CNCC(=O)N2CCC(NC(=O)[C@H](CC(C)C)NC(=O)NNC(=O)[C@H](Cc3ccccc3)NC(=O)[C@@H](NC(=O)[C@H](CC(N)=O)NC(=O)[C@@H](Cc3c[nH]c4ccccc34)NC(=O)[C@@H](Cc3ccc(O)cc3)NC(=O)CCCCCNC(=O)CN3CCN(CC(=O)O)CCN(CC(=O)O)CCN(CC(=O)O)CC3)[C@@H](C)O)(C(=O)N[C@@H](Cc3c[nH]c4ccccc34)C(N)=O)CC2)cc1F [Compound 1] ({DOTA-Ahx}-[dY][dW]NTF[azaGly]L[Api](Gly(N-(3-F-4-Me-benzyl)))W-NH2) | < 10 nM

Continue with the next molecule.
Task: Give the reported Ki for this molecule. CC(C)C[C@H](NC(=O)NNC(=O)[C@H](Cc1ccccc1)NC(=O)[C@@H](NC(=O)[C@H](CC(N)=O)NC(=O)[C@H](CCCCNC(=O)CN1CCN(CC(=O)O)CCN(CC(=O)O)CCN(CC(=O)O)CC1)NC(=O)[C@@H](Cc1ccc(O)cc1)NC(=O)CCOCCOCCNC(=O)CCc1ccc(I)cc1)[C@@H](C)O)C(=O)NC1(C(=O)N[C@@H](Cc2ccccc2)C(N)=O)CCN(C(=N)N)CC1 [Compound 323] ({Hydrocinnamoyl(4-I)-PEG2}-[dY]K(DOTA)NTF[azaGly]L[Api(1-amidino)]F-NH2)
Result: < 10 nM
